experiment: amyloid nucleation score (Sup35N fusion, yeast selection) (log enrichment); library NNK3; higher = more nucleation; inactive = no reads after selection;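 further: zero at mode of non-aggregating sequences after 7 days selection at 30°C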
ATTRIBUTE_MEASURED: amyloid nucleation score

| SUBSTANCE | ATTRIBUTE_MEASURED | RESULT |
| --- | --- | --- |
| AHVALR | amyloid nucleation score | inactive |
| SIDLNGKG | amyloid nucleation score | inactive |
| QEYEGLRDSVKTVEGYVWLM | amyloid nucleation score | inactive |
| NLADAVEENGGYFHFTFPKF | amyloid nucleation score | inactive |

Query: amyloid nucleation score; subject: "WSFMYVYVC"
Response: 1.71

Query: Dear colleague, I am looking for the recorded amyloid nucleation score of the following substance: "QYCSGSLKFRGVPIFNGDDG"
Response: inactive

Query: May I ask what amyloid nucleation score has been recorded for "IIVLPEKRPR" ?
Response: inactive

Query: For "YMLTEFYLFPDRILRHRRTD" , what is its reported amyloid nucleation score?
Response: inactive

Query: Record request: amyloid nucleation score value, item "SSFLKQLLGSVVNSVNVATV"
Response: inactive

Query: May I ask what amyloid nucleation score has been recorded for "FMLWYSPKLFG" ?
Response: inactive

Query: // lookup amyloid nucleation score for "YSGIAS"
Response: inactive

* * *

// reported amyloid nucleation score per item
experiment: amyloid nucleation score (Sup35N fusion, yeast selection) (log enrichment); library NNK1; higher = more nucleation; inactive = no reads after selection
Lab note: record the figure alone, no unit after it.

Recorded results for 2 substances are shown here.
| SUBSTANCE | QUANTITATIVE_READOUT |
| --- | --- |
| IWCHRSGRLFPSMLLKYYRD | -0.766 |
| TFIFAGDIT | 1.38 |

Query: Param item = "QYRGDIYKISG" ; retrieve measured amyloid nucleation score.
Response: 1.29

Query: Query (substance): "RERIECDWTGLAFGDPKVSV" ; field requested: amyloid nucleation score
Response: -0.646

* * *

amyloid nucleation score listing for selected sequences.
assay: amyloid nucleation score (Sup35N fusion, yeast selection) (log enrichment); library NNK1; higher = more nucleation; inactive = no reads after selection
A bare number is all that is needed in reply.

Please review the following examples before continuing.
| RECORD_SEQUENCE | amyloid nucleation score |
| --- | --- |
| YLERIGATYMGG | 0.601 |
| YYPVKSFELGWSHLGGKHWA | 1.34 |
| RRSSSFSGIWYVSVGYNASL | -0.316 |
| VLDVVVCSSWGDLKRNLRPC | 3.29 |

Please examine the following record next.
Query: Using the record for "KGYLLRWLGEVYFVNYGSNS" , report its amyloid nucleation score.
Response: -0.585

* * *

experiment: amyloid nucleation score (Sup35N fusion, yeast selection) (log enrichment); library NNK1; higher = more nucleation; inactive = no reads after selection
Label scheme for amyloid nucleation score: lower than -0.07 is not fulfilled, -0.07 and above is fulfilled.

See these solved cases before continuing.
| SUBSTANCE | CLASS |
| --- | --- |
| QCSSANTSGIAETSTSLGRT | not fulfilled |
| MRQAGACNLRQSHVEQVCQQ | fulfilled |
| WNTMWRHLGIYFKY | fulfilled |
| VMSSMMWYSYHMFHPYNAFE | fulfilled |
| QDLTEWTYSLAPFMVFHTRP | not fulfilled |
| TRPLPWTQP | fulfilled |
| SMSHVWL | not fulfilled |
| FSWTYVYYNN | fulfilled |

Query: Assess whether reported amyloid nucleation score for "SRVSFLNFWN" sits at -0.07 or higher.
Response: fulfilled

Query: amyloid nucleation score >= -0.07 for "HMLGKASGVLFNQRAVTGG" ?
Response: fulfilled

Query: Please check the record "VQPDDLARTGRLQLVLLVWN" and state if its amyloid nucleation score is at or above -0.07.
Response: not fulfilled

Query: Entry "TSCFGVWRHVLSRHSFRTSV" : is its amyloid nucleation score no less than -0.07?
Response: fulfilled

Query: Test whether the substance "GLGLCRVE" records amyloid nucleation score of -0.07 or higher.
Response: not fulfilled

Query: Check if amyloid nucleation score >= -0.07 (inclusive). Item: "VSETAFLNTNKWGPKCLMWN"
Response: not fulfilled
